ASSAY: Acid dissociation constant, pKa of the compound
Format: physicochemical
MEASURED METRIC: pKa

[
  {
    "COMPOUND": "CCOc1ccccc1-c1ccc(-c2nc3cnccc3c(NC(C)C(=O)O)c2C#N)cc1 (racemic)",
    "EXPERIMENTAL VALUE": 3.26
  }
]

---

ASSAY: Metabolic stability in Han Wistar rat liver microsomes assessed as maximum bioavailability at 1 uM in presence of NADP and measured upto 60 mins by LC-MS/MS analysis
Type: ADME, Microsome
PROTOCOL CONDITIONS: read-out: Fmax

[
  {
    "COMPOUND": "CC[C@@H](Nc1c(C#N)c(-c2ccc(-c3cccc(C)c3F)cc2)nc2cnccc12)C(=O)O",
    "UNITS": "%",
    "Fh at 1 h, 1 µM": 33
  },
  {
    "COMPOUND": "CCOc1ccccc1-c1ccc(-c2nc3cnccc3c(N[C@H](CC)C(=O)O)c2C#N)cc1",
    "UNITS": "%",
    "Fh at 1 h, 1 µM": 87
  }
]
